All values here come from PubChem BioAssay (NCI).

System: NCI/ADR-RES ovarian
assay_text: NCI-60 one-dose screen, 48 h
condition_summary: 10 µM unless noted
Description: Growth inhibition of the NCI/ADR-RES human […] tumor cell line is measured as a screen for anti-cancer activity. Cells are grown in 96 well plates and exposed to the test compound for 48 hours. Compounds are tested at a single concentration, which is 10^-5 M for most compounds. The reported endpoint is percent growth (GI% or GIPRCNT), where numbers from 0 - 100% represent growth inhibition, and numbers from -100% - 0 represent cell death. For example, a value of 40 represents 60% growth inhibition. […]
The panel holds about 83,000 compounds, 20% with a hit somewhere; the sample as a whole holds those more often. The source made the active and inactive calls. How the source made its calls: active means growth percent below 10; inactive means the rest.
Labels: T for active, F for inactive

>>> class("CC(=O)Nc1ncc(S(=O)(=O)c2ccc([N+](=O)[O-])cc2)s1")
"F"
>>> class("O=[N+]([O-])c1ccc(-c2nc(N(CCO)CCO)c3ccccc3n2)o1")
"T"
>>> class("Nc1c(Br)cc(O)c2c1C(=O)c1ccccc1C2=O")
"F"
>>> class("Nc1ccn(C2OC(CO)C(O)C2F)c(=O)n1 (stereo unspecified)")
"F"
>>> class("Clc1cccc(Cl)c1C1CSc2ccccc2N=C1c1ccccc1 (stereo unspecified)")
"F"
>>> class("Cc1ccc(C(C)C)c(OCC(=O)O)c1")
"F"
>>> class("CCCCCCCCNC(=O)C(C)C")
"F"
>>> class("COc1cccc(N=CNc2cccc(OC)c2)c1")
"F"
>>> class("NC(=S)N/N=C/c1ccc(OC(=O)COc2ccccc2)cn1")
"F"
>>> class("O=S(Cc1ccccc1)/C(=C/NC(=S)Nc1cc(Cl)ccc1Cl)c1ccccc1 (stereo unspecified)")
"F"
>>> class("Cc1c(-c2ccc(C3CCCCC3)cc2)nc2ccc(F)cc2c1C(=O)O")
"F"
>>> class("Cc1cc2c3ccc(C)[n+](C)c3ccc2n1C")
"F"
>>> class("COC(=O)c1ccccc1C(=O)c1c(C)cc(C)cc1C")
"F"
>>> class("CCOC(=O)c1ccc(C(C)(C)C)cc1")
"F"
>>> class("O=[N+]([O-])c1ccc2[nH]c(=S)n(/C=C(/c3ccc(Cl)cc3Cl)S(=O)(=O)Cc3ccc(Cl)cc3Cl)c2c1")
"F"
>>> class("CN1CCCN(C(c2ccccc2)c2ccc(Cl)cc2)CC1 (stereo unspecified)")
"F"
>>> class("Clc1ncnc2nc[nH]c12")
"F"
>>> class("Cc1cccnc1NC1OC(=O)c2ccccc21 (stereo unspecified)")
"F"
>>> class("c1ccc(Oc2c3ccccc3nc3ccccc23)cc1")
"F"
>>> class("CCCCOC(=O)c1ccc(NC(=O)CCl)cc1")
"F"
>>> class("COc1cc(-c2ccc(NC(=O)CC(C)=O)c(OC)c2)ccc1NC(=O)CC(C)=O")
"F"
>>> class("Oc1ccc(N=Cc2ccc(OCc3ccccc3)cc2)cc1")
"F"
>>> class("O=C(c1ccccc1)c1ccc(-c2ccc(O)cc2)cc1")
"F"
>>> class("CC(=O)c1cccc(N(C)S(=O)(=O)c2ccc(C)cc2)c1")
"F"
>>> class("CCCCCCCCCCCCSC1=C(Cl)C(=O)C(OC)=C(OC)C1=O")
"F"
>>> class("CCCCCCCCCCCCCCCCCCSC(=N)N")
"F"
